# test-details: ATG_AP_1_CIS: Attagene CIS-FACTORIAL HepG2 Assay for human Activator Protein 1 (AP-1) (AID 2282931)
# cond: HepG2 Attagene cis-factorial AP-1 reporter mRNA; actives raise or lower the signal
Calls of active or inactive are those of the source. How the source made its calls: active means hit-call score of the fitted dose curve at least 0.9, where 1 is the maximum; inactive means score below 0.9.
Use one of these outcomes when replying: active, inactive

| molecule | qualitative-label |
| --- | --- |
| O=C(CCl)CCl | inactive |
| CCOC(=O)/C=C(C)/C=C/C[C@@H](C)CCCC(C)C | active |
| C1CCC(NC2CCCCC2)CC1 | inactive |
| BrCCBr | inactive |
| c1ccc(N=NNc2ccccc2)cc1 | active |
| COc1cc(-c2ccc(N)c(OC)c2)ccc1N | inactive |
| N#CN=C(N)N | inactive |
| O=C(Cl)c1ccc(Cl)cc1 | inactive |

Answer briefly: the call reported for "Cc1ccccc1C(=O)Nc1cccc(OC(C)C)c1" in this assay.
inactive

# outcome recorded in this test, key = "O=C(O)C(Cl)(Cl)Cl"
inactive

What call does the record list for "O=[N+]([O-])c1ccc2c3c(cccc13)CC2" ?
inactive
